Would you mind telling me the reported log10 of MIC of each entry?
# Tested on: Streptococcus pneumoniae
# assay details: Antibacterial activity against Streptococcus pneumoniae ATCC 49619 assessed as growth inhibition by broth microdilution method
# Format: functional
The common logarithm of MIC in µg/mL is what is listed.

Ask | Check the records and state log10 of MIC for "COC(=O)c1oc(=O)c2c(O)c3c(=O)cc(C)oc3cc2c1O"
Reply | 0.60

Ask | Check the records and state log10 of MIC for CC[C@H](C)[C@H]1C(=O)O[C@H](C(C)C)C(=O)N(C)[C@@H](C(C)C)C(=O)O[C@H](C(C)C)C(=O)N(C)[C@@H](C(C)C)C(=O)O[C@H](C(C)C)C(=O)N1C [ENNIATIN B1]
Reply | 0.60

Ask | Check the records and state log10 of MIC for CN(C)[C@@H]1C(O)=C(C(N)=O)C(=O)[C@@]2(O)C(O)=C3C(=O)c4c(O)cccc4[C@@](C)(O)[C@H]3C[C@@H]12 [TETRACYCLINE]
Reply | -1.20

Ask | Check the records and state log10 of MIC for CC(C)[C@H]1C(=O)O[C@H](C(C)C)C(=O)N(C)[C@@H](C(C)C)C(=O)O[C@H](C(C)C)C(=O)N(C)[C@@H](C(C)C)C(=O)O[C@H](C(C)C)C(=O)N1C [ENNIATIN B]
Reply | 1.20

Ask | Check the records and state log10 of MIC for CN[C@H](CC(C)C)C(=O)N[C@H]1C(=O)N[C@@H](CC(N)=O)C(=O)N[C@H]2C(=O)N[C@H]3C(=O)N[C@H](C(=O)N[C@H](C(=O)O)c4cc(O)cc(O)c4-c4cc3ccc4O)[C@H](O)c3ccc(c(Cl)c3)Oc3cc2cc(c3O[C@@H]2O[C@H](CO)[C@@H](O)[C@H](O)[C@H]2O[C@H]2C[C@](C)(N)[C@H](O)[C@H](C)O2)Oc2ccc(cc2Cl)[C@H]1O [VANCOMYCIN]
Reply | -0.90

Ask | Check the records and state log10 of MIC for O=C(O)c1cn(C2CC2)c2cc(N3CCNCC3)c(F)cc2c1=O [CIPROFLOXACIN]
Reply | -0.60

----------
Would you mind telling me the reported MIC of each entry?
# Tested on: Staphylococcus aureus
# assay details: Antibacterial activity against Staphylococcus aureus ATCC 29213 assessed as growth inhibition by broth microdilution method
# Assay type: functional
State just the number; it will be interpreted in µg/mL.

Ask | Check the records and state MIC for CN(C)[C@@H]1C(O)=C(C(N)=O)C(=O)[C@@]2(O)C(O)=C3C(=O)c4c(O)cccc4[C@@](C)(O)[C@H]3C[C@@H]12 [TETRACYCLINE]
Reply | 0.25

Ask | Check the records and state MIC for "COC(=O)c1oc(=O)c2c(O)c3c(=O)cc(C)oc3cc2c1O"
Reply | 2

Ask | Check the records and state MIC for O=C(O)c1cn(C2CC2)c2cc(N3CCNCC3)c(F)cc2c1=O [CIPROFLOXACIN]
Reply | 0.0625

Ask | Check the records and state MIC for CC[C@H](C)[C@H]1C(=O)O[C@H](C(C)C)C(=O)N(C)[C@@H](C(C)C)C(=O)O[C@H](C(C)C)C(=O)N(C)[C@@H](C(C)C)C(=O)O[C@H](C(C)C)C(=O)N1C [ENNIATIN B1]
Reply | 8

# credit: ChEMBL document CHEMBL3085737
